Recorded IC50 for the following compounds
- testedSystem: CDK9/Cyclin K (Homo sapiens, UniProt P50750)
- Sequence (P50750 whole entry): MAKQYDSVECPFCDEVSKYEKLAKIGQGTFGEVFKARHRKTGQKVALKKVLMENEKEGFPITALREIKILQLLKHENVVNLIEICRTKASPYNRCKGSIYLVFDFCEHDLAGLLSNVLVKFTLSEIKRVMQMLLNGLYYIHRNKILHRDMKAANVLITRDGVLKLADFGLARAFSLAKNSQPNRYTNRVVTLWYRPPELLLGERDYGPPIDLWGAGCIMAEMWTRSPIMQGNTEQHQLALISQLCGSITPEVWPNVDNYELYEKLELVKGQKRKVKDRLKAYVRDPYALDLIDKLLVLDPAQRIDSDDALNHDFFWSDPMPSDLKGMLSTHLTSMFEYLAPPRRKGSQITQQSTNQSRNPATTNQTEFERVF
- Sequence (O75909 whole entry partner): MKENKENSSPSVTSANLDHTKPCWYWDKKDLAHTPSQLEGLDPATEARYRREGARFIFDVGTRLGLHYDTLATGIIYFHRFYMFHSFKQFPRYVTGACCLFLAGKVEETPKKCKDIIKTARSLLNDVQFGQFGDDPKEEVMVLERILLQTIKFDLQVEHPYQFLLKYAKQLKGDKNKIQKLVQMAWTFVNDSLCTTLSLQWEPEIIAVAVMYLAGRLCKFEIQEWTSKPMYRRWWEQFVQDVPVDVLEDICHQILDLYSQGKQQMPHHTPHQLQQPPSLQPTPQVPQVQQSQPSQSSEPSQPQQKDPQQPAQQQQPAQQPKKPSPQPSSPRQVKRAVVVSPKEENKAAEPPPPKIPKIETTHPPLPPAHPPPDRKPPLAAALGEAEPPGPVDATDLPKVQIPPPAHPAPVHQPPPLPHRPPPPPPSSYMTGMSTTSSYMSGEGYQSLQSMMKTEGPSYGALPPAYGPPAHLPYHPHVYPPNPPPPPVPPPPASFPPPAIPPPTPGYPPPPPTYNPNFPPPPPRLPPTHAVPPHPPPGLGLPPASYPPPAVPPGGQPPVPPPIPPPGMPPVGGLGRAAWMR
- experimentNotes: Inhibition of CDK9/Cyclin K kinase activity (ADP-Glo)
- Format: biochemical
- conditions: mean value from several measurements; read-out: IC50 CDK9/Cyclin K

{"compound": "Cn1cc(N2CCCc3c(-c4nc(N[C@H]5CCC(C)(C)NC5)ncc4C(F)(F)F)c[nH]c3C2=O)cn1", "IC50": "> 200 nM"}

Read the next record carefully.
stdin: I'd like to know its IC50. The compound in question is O=c1c2[nH]cc(-c3nc(N[C@H]4CCCNC4)ncc3C(F)(F)F)c2ccn1C1CC1
stdout: 5 to 50 nM

----------
# IC50 values compiled below
- testedSystem: CDK9/Cyclin K (Homo sapiens, UniProt P50750)
- experimentNotes: Inhibition of CDK9/Cyclin K kinase activity (ADP-Glo)
- Assay type: biochemical
- conditions: mean value from several measurements; read-out: IC50 CDK9/Cyclin K

{"molecule": "CC(C)N1CCCc2c(-c3nc(N[C@H]4CCC(C)(C)NC4)ncc3C(F)(F)F)c[nH]c2C1=O", "quantity": "IC50", "readoutValue": "> 200 nM"}

stdin: Under CDK9/Cyclin K (Homo sapiens, UniProt P50750): IC50 value of O=C(Nc1nccs1)c1cc(-c2nc(N[C@H]3CCCNC3)ncc2C(F)(F)F)c[nH]1 ?
stdout: 5 to 50 nM

stdin: I'm curious: which IC50 was measured for CCN1CCCc2c(-c3nc(N[C@H]4CCC(C)(C)NC4)ncc3C(F)(F)F)c[nH]c2C1=O tested on CDK9/Cyclin K (Homo sapiens, UniProt P50750)?
stdout: > 200 nM

stdin: IC50 of Cc1noc(C)c1-n1ccc2c(-c3nc(N[C@H]4CCCNC4)ncc3C(F)(F)F)c[nH]c2c1=O on CDK9/Cyclin K (Homo sapiens, UniProt P50750)?
stdout: > 200 nM

stdin: Checklist item: IC50 tested on CDK9/Cyclin K (Homo sapiens, UniProt P50750), entry CN(C(=O)c1cc(-c2nc(N[C@H]3CCCNC3)ncc2C(F)(F)F)c[nH]1)c1nccs1 , value?
stdout: 50 to 200 nM

stdin: Provide value of IC50 for this record tested with CDK9/Cyclin K (Homo sapiens, UniProt P50750): Cn1c(-c2cc(-c3nc(N[C@H]4CCCNC4)ncc3C(F)(F)F)c[nH]2)nc2ccccc21
stdout: > 200 nM

stdin: Give the reported IC50 for CC1CCc2c(-c3nc(N[C@H]4CCCNC4)ncc3C(F)(F)F)c[nH]c2C(=O)N1C (stereo partly shown) (system: CDK9/Cyclin K (Homo sapiens, UniProt P50750)).
stdout: > 200 nM

stdin: Which measured IC50 belongs to CN1Cc2c(-c3nc(N[C@H]4CCCNC4)ncc3C(F)(F)F)c[nH]c2C1=O , tested on CDK9/Cyclin K (Homo sapiens, UniProt P50750)?
stdout: 5 to 50 nM

----------
- testedSystem: CDK9/Cyclin K (Homo sapiens, UniProt P50750)
- experimentNotes: Inhibition of CDK9/Cyclin K kinase activity (ADP-Glo)
- Type: biochemical
- conditions: mean value from several measurements; read-out: IC50 CDK9/Cyclin K
pIC50: −log10 of the molar value.
quantity: pIC50

Examples with their reported pIC50 follow.
{"molecule": "Cn1cc(N2CCCc3c(-c4nc(N[C@H]5CCCNC5)ncc4C(F)(F)F)c[nH]c3C2=O)cn1 [CDK7_955]", "pIC50": "< 6.70"}
{"molecule": "CN1CCCc2c(-c3nc(N[C@H]4CCC5(CC5)NC4)ncc3C(F)(F)F)c[nH]c2C1=O [CDK7_1201]", "pIC50": "6.70 to 7.30"}
{"molecule": "CN1CCc2c(-c3nc(N[C@H]4CCCNC4)ncc3C(F)(F)F)c[nH]c2C1=O [CDK7_843]", "pIC50": "< 6.70"}
{"molecule": "CN1CCC[C@H](Nc2ncc(C(F)(F)F)c(-c3c[nH]c(C(=O)N(C)C)c3)n2)C1 [CDK7_1019]", "pIC50": "< 6.70"}
{"molecule": "FC(F)(F)c1cnc(N[C@H]2CCCNC2)nc1-c1cc[nH]c1 [CDK7_972]", "pIC50": "6.70 to 7.30"}

stdin: Find the recorded pIC50 belonging to O=C1NCCc2c(-c3nc(N[C@H]4CCCNC4)ncc3C(F)(F)F)c[nH]c21 [CDK7_814] and report it.
stdout: 6.70 to 7.30

stdin: Recorded pIC50 for O=c1c2[nH]cc(-c3nc(N[C@H]4CCCNC4)ncc3C(F)(F)F)c2ccn1-c1nccs1 [CDK7_1058] , please?
stdout: 7.30 to 8.30

stdin: Quick one: pIC50 of NC(=O)c1cc(-c2nc(N[C@H]3CCCNC3)ncc2C(F)(F)F)c[nH]1 [CDK7_537] ?
stdout: 7.30 to 8.30
